In this section we review reported inhibition of aggregation values for a set of molecules.
Test Summary: reduction of polyQ htt aggregates in cells – imaging, exon1htt(103Q)mCFP cells, high-content imaging, primary screen (AID 483);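 further: compound exposure lasted 3 days before fixation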
Measurement Context: exon1htt(103Q)mCFP cell line, aggregate imaging, at 2 µM; active compounds read high
Assay Endpoint: inhibition of aggregation (%)

C=CCOC(=O)COc1cc(C)cc2oc(=O)c3c(c12)CCC3; 20.1
CN1[C@@H]2CC[C@H]1CC(OC(=O)C1C=Nc3ccccc31)C2 (stereo partly specified); -36
C[N+]1(C)CCc2cc3c(cc2[C@H]1[C@@H]1OC(=O)c2c1ccc1c2OCO1)OCO3; -10.4
N#Cc1ccccc1Cn1cc(C(=O)C2CC2)c2ccccc21; -0.9
Cc1ccc(OCC(=O)NCCN2CCN(C(=O)COc3ccc(C)cc3)CC2)cc1; 9.1
CN1CCN(c2nc3ccccc3c(=O)n2-c2ccccc2)CC1; -4.9
